// provenance: PubChem BioAssay (NCATS)

# experimental_protocol: qHTS of pediatric cancer cell lines to identify multiple opportunities for drug repurposing: Primary screen for NB-EBc1 cells (AID 1347095);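 also: plate controls were DMSO neutral control for no effect and bortezomib for full effect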
# experimental_parameters: NB-EBc1 neuroblastoma viability, CellTiter-Glo luminescence, 48 h; series mostly up to 46 µM
Inconclusive results are not listed. Calls of active or inactive are those of the source. Calls follow the shape of the dose curve; as a rule, active = well fitted cell-killing curve with a large enough effect; inconclusive = small, poorly fitted or top-dose-only effect; inactive = no such curve, though single readings can be large or run the other way.
A correct response names exactly one class from Y for active, N for inactive

Cc1cc(N)c2cc(NC(=O)Nc3ccc4nc(C)cc(N)c4c3)ccc2n1: N

Query :: For COC(=O)CCc1ccc(OCC(O)CNC(C)C)cc1 (configuration not stated) , what call appears in the results of this test?
Result :: N

Query :: What outcome does the record of this test show for `C[C@@H]1C[C@H]2[C@@H]3CCC4=CC(=O)C=C[C@]4(C)[C@@]3(F)[C@@H](O)C[C@]2(C)[C@H]1C(=O)CO` ?
Result :: N

Query :: For this molecule, state the assay outcome: `CCOC(=O)[C@H](CCc1ccccc1)N[C@@H](C)C(=O)N1Cc2ccccc2C[C@H]1C(=O)O`
Result :: N

* * *

# Test system: C2A
# experimental_protocol: qHTS profiling for inhibitors of Plasmodium falciparum proliferation (AID 504749); also: nearly all actives have a fitted effect of over 60% in size
# experimental_parameters: P. falciparum in erythrocytes, SYBR Green DNA, 72 h; series mostly up to 28.7 µM
Results filed as inconclusive are left out. Activity calls are given as the source filed them. Calls come from the whole dose curve; as a rule, active = well fitted inhibition curve with a large enough effect; inconclusive = small, poorly fitted or top-dose-only effect; inactive = flat fitted curve, though single readings scatter.
In this exercise, the only acceptable responses are 1.0 = active, 0.0 = inactive

Known results for compounds:
CC(C)N=C(N)/N=C(\N)Nc1ccc(Cl)cc1: 0.0
CN1CCC(=C2c3ccccc3Sc3ccccc32)CC1: 1.0
OCc1ccccc1O: 0.0
Cc1cc(N)c2cc(NC(=O)Nc3ccc4nc(C)cc(N)c4c3)ccc2n1: 1.0
C#C[C@]1(O)CC[C@H]2[C@@H]3CCc4cc(OC5CCCC5)ccc4[C@H]3CC[C@@]21C: 0.0
C[C@H]1[C@H](NC(=O)/C(=N/OC(C)(C)C(=O)O)c2csc(N)n2)C(=O)N1S(=O)(=O)O (stereo in doubt): 0.0

Continue with the compound presented below.
Query :: Can you look up the reported call for `C[C@@H]1C(=O)NC2=Nc3cccc(Cl)c3CN21` for me?
Result :: 0.0

* * *

# Tested on: AS120
# experimental_protocol: qHTS profiling for inhibitors of Plasmodium falciparum proliferation (AID 504749); also: nearly all actives have a fitted effect of over 60% in size
# experimental_parameters: P. falciparum in erythrocytes, SYBR Green DNA, 72 h; series mostly up to 28.7 µM
Inconclusive results are not listed. Calls of active or inactive are those of the source. The call rests on the fitted dose curve; in most records, active means well fitted inhibition curve with a large enough effect; inconclusive means small, poorly fitted or top-dose-only effect; inactive means flat fitted curve, though single readings scatter.
I would appreciate it if you answered using one of these outcomes: active, inactive

COc1cc(NS(C)(=O)=O)ccc1Nc1c2ccccc2nc2ccccc12: active
CCCCC1=NC2(CCCC2)C(=O)N1Cc1ccc(-c2ccccc2-c2nn[nH]n2)cc1: inactive
CCN(CC)C(=O)/C(C#N)=C/c1cc(O)c(O)c([N+](=O)[O-])c1: inactive
Oc1c(I)cc(Cl)c2cccnc12: active

Switching to the query record.
Query :: Record lookup: outcome of this test for COc1cc2c(cc1OC)C(=O)C(CC1CCN(Cc3ccccc3)CC1)C2 (stereo not given) ?
Result :: inactive

* * *

# Tested on: CP260
# experimental_protocol: qHTS profiling for inhibitors of Plasmodium falciparum proliferation (AID 504749); also: nearly all actives have a fitted effect of over 60% in size; also: potency is read from the fitted curve at half-maximal effect
# experimental_parameters: P. falciparum in erythrocytes, SYBR Green DNA, 72 h; series mostly up to 28.7 µM
Inconclusive results are not listed. Calls of active or inactive are those of the source. Calls come from the whole dose curve; as a rule, active = well fitted inhibition curve with a large enough effect; inconclusive = small, poorly fitted or top-dose-only effect; inactive = flat fitted curve, though single readings scatter.
reported_endpoint: Potency

CCOC(=O)OC(C)OC1=C(C(=O)Nc2ccccn2)N(C)S(=O)(=O)c2ccccc21 (stereo not given): inactive
CCCCCCCCCCOCC(O)CN (stereo not given): inactive
Cc1cc(O)c(C(C)C)cc1Cl: inactive
CCCCCCCCCCCCCCCCOP(=O)([O-])OCC[N+](C)(C)C: inactive
Cc1cccc(C)c1NC(=O)CN1CCN(CCCC(c2ccc(F)cc2)c2ccc(F)cc2)CC1: inactive
CC(C)(C)CC(C)(C)c1ccc(O)c(Cc2ccc(Cl)cc2Cl)c1: 2 µM (active)

Query :: Record `NCCC(O)(P(=O)(O)O)P(=O)(O)O` : what is its Potency with CP260?
Result :: inactive

Query :: For the record `O=c1ccc2ccccc2o1` , what value of Potency is listed for CP260?
Result :: inactive

Query :: Can you look up Potency on CP260 for `COc1ccc(C2C(=O)c3ccccc3C2=O)cc1` ?
Result :: inactive

Query :: Short answer please: Potency, CP260, entry `C#C[C@]1(OC(C)=O)CC[C@H]2[C@@H]3CCC4=C[C@@H](OC(C)=O)CC[C@@H]4[C@H]3CC[C@@]21C`
Result :: inactive

Query :: Give the reported Potency for `CCCCCCCCCCCCCCCC[N+](C)(C)CC` (system: CP260).
Result :: 2.82 µM (active)

Query :: Can you look up Potency on CP260 for `NC(=NCCCCCCN=C(N)/N=C(\N)Nc1ccc(Cl)cc1)/N=C(\N)Nc1ccc(Cl)cc1` ?
Result :: 1 µM (active)

Query :: Lookup: Potency / CP260 / `Cc1c(N(C)CS(=O)(=O)O)c(=O)n(-c2ccccc2)n1C`
Result :: inactive

Query :: Could you share what Potency was measured for `Cc1cc(=O)n(-c2ccccc2)n1C` , tested on CP260?
Result :: inactive

Query :: Any idea what Potency came out for `CCOC(=O)n1ccn(C)c1=S` on CP260?
Result :: inactive

Query :: Which Potency is reported with CP260 for this entry: `NCCc1ccn[nH]1` ?
Result :: inactive

* * *

# experimental_protocol: Stat Signaling Pathway (AID 446);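 also: ME-180 cervical cancer cells given 40 pM IL-6 alongside compound; SIE-controlled beta-lactamase reporter measured as 460/530 nm FRET emission ratio; % is scaled to controls: 0 for no effect and ±100 for the full control effect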
# experimental_parameters: ME-180 (cervical carcinoma) SIE beta-lactamase reporter, IL-6 stimulated, 5 h; at 17.2 µM (top of the series)
Inconclusive results are not listed.
Recorded activity, negative = inhibition, one value per entry.
// units = %; emit number, no label

Below: 2 compounds and their reported activity, negative = inhibition.
CN(C(=O)CN(CCO)CC(=O)N(C)C(C)(C)Cc1ccccc1)C(C)(C)Cc1ccccc1: 5.14
C[C@H](O)C(=O)Nc1c(I)c(C(=O)NC(CO)CO)c(I)c(C(=O)NC(CO)CO)c1I: -2.21

Then this compound:
Query :: Quick check: activity, negative = inhibition of `O=C(OCCOCCO)c1ccccc1Nc1cccc(C(F)(F)F)c1` ?
Result :: -10.5

* * *

# experimental_protocol: P-glycoprotein substrates identified in KB-8-5-11 adenocarcinoma cell line, qHTS therapeutic library screen (AID 1346987); also: nearly all actives have a fitted effect of over 65% in size; also: potency is read from the fitted curve at half-maximal effect
# experimental_parameters: KB-8-5-11 (P-gp overexpressing) viability, CellTiter-Glo, 72 h; series mostly up to 44.5 µM
Inconclusive results are not listed. The source made the active and inactive calls. The call rests on the fitted dose curve; in most records, active means well fitted inhibition curve with a large enough effect; inconclusive means small, poorly fitted or top-dose-only effect; inactive means flat fitted curve, though single readings scatter.
reported_endpoint: Potency

Cc1ccc(O)c2ncccc12: inactive
COC(=O)C1=C(C)NC(C)=C(C(=O)O[C@@H]2CCCN(Cc3ccccc3)C2)[C@@H]1c1cccc([N+](=O)[O-])c1: 20.6 µM (active)
Cc1nc2n(c(=O)c1CCN1CCC(c3noc4cc(F)ccc34)CC1)CCC[C@H]2O: inactive
C=C1C(=C/C=C2\CCC[C@]3(C)[C@@H]([C@H](C)/C=C/[C@@H](O)C4CC4)CC[C@@H]23)C[C@@H](O)C[C@@H]1O: 8.2 µM (active)
C=CCc1ccc(O)c(OC)c1: inactive

Query :: Consider the compound shown here: `CCOC(=O)COc1ccc2c(C)c(CCN(CC)CC)c(=O)oc2c1Cl` What is its recorded Potency?
Result :: inactive

Query :: Param item = COc1cc2c(cc1OC)C(C(C(=O)N(CCc1ccc(OC)c(OC)c1OC)CCc1ccc(OC)c(OC)c1OC)c1ccccc1)=NCC2 (centres undefined) ; retrieve measured Potency.
Result :: 9.2 µM (active)

Query :: For the compound shown here, `CC[N+](CC)(CCNC(=O)C(=O)NCC[N+](CC)(CC)Cc1ccccc1Cl)Cc1ccccc1Cl` , give the reported Potency.
Result :: inactive

* * *

# Tested on: MKL-1
# experimental_protocol: qHTS assay to identify novel small-molecules to repurpose for Merkel cell carcinoma treatment (AID 1296009); also: % is scaled to controls: 0 for no effect and ±100 for the full control effect; nearly all actives have a fitted effect of over 60% in size
# experimental_parameters: MCC and control cell lines, CellTiter-Glo viability, 72 h; series mostly up to 46 µM
Results filed as inconclusive are left out. Calls of active or inactive are those of the source. Calls come from the whole dose curve; as a rule, active = well fitted inhibition curve with a large enough effect; inconclusive = small, poorly fitted or top-dose-only effect; inactive = flat fitted curve, though single readings scatter.
reported_endpoint: outcome

Take a look at these entries with their results.
CCCCOc1ccc(OCCCN2CCOCC2)cc1: inactive
CC(Cc1cccc(C(F)(F)F)c1)NCCOC(=O)c1ccccc1 (stereo unspecified): inactive
CC1=C(C(=O)O)N2C(=O)[C@@H](NC(=O)[C@H](N)c3ccc(O)cc3)[C@H]2SC1: inactive
NC(=O)CC[C@@H]1NC(=O)[C@H](Cc2ccccc2)NC(=O)[C@H](Cc2ccc(O)cc2)NC(=O)CCSSC[C@@H](C(=O)N2CCC[C@H]2C(=O)N[C@@H](CCCN=C(N)N)C(=O)NCC(N)=O)NC(=O)[C@H](CC(N)=O)NC1=O: inactive
O=C(COc1ccc(Cl)cc1)N1CCN(Cc2ccc3c(c2)OCO3)CC1: inactive

Query :: Need outcome of `COC(=O)[C@@H]1CC2=CC(=O)CC[C@]2(C)[C@@]23O[C@@H]2C[C@@]2(C)[C@@H](CC[C@@]24CCC(=O)O4)[C@H]13` , thanks.
Result :: inactive
